Sourced from ChEMBL document CHEMBL3797104

Assay: Cytotoxicity against human PC3 cells assessed as growth inhibition at 50 uM after 48 hrs by SRB assay
Assay type: functional
Details: PC-3, 48 h, read-out: GI
Documented inhibition of growth at 50 µM across a set of compounds
Kindly answer with a numeric value in %, unit omitted.

COc1cc(/C=C/C(=O)/C=C/c2ccco2)ccc1OCc1cn(CCOc2cc(=O)oc3ccccc23)nn1	14
COc1ccc(/C=C/C(=O)/C=C/c2ccc(OCc3cn(CCOc4cc(=O)oc5ccccc45)nn3)c(OC)c2)cc1OC	19
COc1ccc(/C=C/C(=O)/C=C/c2ccc(OCc3cn(CCCOc4cc(=O)oc5ccccc45)nn3)c(OC)c2)cc1OC	9
COc1cc(/C=C/C(=O)/C=C/c2cccs2)ccc1OCc1cn(CCOc2cc(=O)oc3ccccc23)nn1	12
COc1cccc(/C=C/C(=O)/C=C/c2ccc(OCc3cn(CCOc4cc(=O)oc5ccccc45)nn3)c(OC)c2)c1	13

Identify measured inhibition of growth at 50 µM associated with COc1cc(/C=C/C(=O)/C=C/c2ccccc2)ccc1OCc1cn(CCOc2cc(=O)oc3ccccc23)nn1 10

For the compound COc1ccc(/C=C/C(=O)/C=C/c2ccc(OCc3cn(CCOc4cc(=O)oc5ccccc45)nn3)c(OC)c2)cc1 , report inhibition of growth at 50 µM. 15

# return recorded inhibition of growth at 50 µM for entry COc1cc(/C=C/C(=O)/C=C/c2cc(OC)c(OC)c(OC)c2)ccc1OCc1cn(CCOc2cc(=O)oc3ccccc23)nn1 22

====

Assay: Cytotoxicity against human PC3 cells assessed as growth inhibition at 50 uM after 48 hrs by SRB assay
Assay type: functional
Settings: PC-3, 48 h, read-out: GI
property-measured: inhibition of growth at 50 µM (%)
Return type: number; implicit unit %.

COc1cc(/C=C/C(=O)/C=C/c2cccc3ccccc23)ccc1OCc1cn(CCOc2cc(=O)oc3ccccc23)nn1	20
COc1cc(/C=C/C(=O)/C=C/c2cc(OC)c(OC)c(OC)c2)ccc1OCc1cn(CCCOc2cc(=O)oc3ccccc23)nn1	12

With those in mind, consider the next compound.
Supply recorded inhibition of growth at 50 µM for COc1ccccc1/C=C/C(=O)/C=C/c1ccc(OCc2cn(CCOc3cc(=O)oc4ccccc34)nn2)c(OC)c1 here. 11

====

Test: Cytotoxicity against human HCT116 cells after 48 hrs by SRB assay
Assay type: functional, cell-based
Details: HCT-116, 48 h
property-measured: IC50 (µM)
Enter your answer as a number in µM; do not include the unit.

Answered examples (3):
COc1cccc(/C=C/C(=O)/C=C/c2ccc(OCc3cn(CCOc4cc(=O)oc5ccccc45)nn3)c(OC)c2)c1	9.76
COc1ccc(/C=C/C(=O)/C=C/c2ccc(OCc3cn(CCOc4cc(=O)oc5ccccc45)nn3)c(OC)c2)cc1	9.29
COc1cc(/C=C/C(=O)/C=C/c2ccco2)ccc1OCc1cn(CCOc2cc(=O)oc3ccccc23)nn1	9.18

Lab note: next molecule to report on.
Could you please provide reported IC50 for COc1ccccc1/C=C/C(=O)/C=C/c1ccc(OCc2cn(CCOc3cc(=O)oc4ccccc34)nn2)c(OC)c1 ? Thanks! 9.49

====

Test: Cytotoxicity against human COLO205 cells assessed as growth inhibition at 50 uM after 48 hrs by SRB assay
Assay type: functional
Conditions: COLO 205, 48 h, read-out: GI
Assign 1 to entries whose inhibition of growth at 50 µM meets or exceeds 50%; assign 0 to the rest.

COc1cccc(/C=C/C(=O)/C=C/c2ccc(OCc3cn(CCCOc4cc(=O)oc5ccccc45)nn3)c(OC)c2)c1	1
COc1ccccc1/C=C/C(=O)/C=C/c1ccc(OCc2cn(CCCCOc3cc(=O)oc4ccccc34)nn2)c(OC)c1	0
COc1ccccc1/C=C/C(=O)/C=C/c1ccc(OCc2cn(CCCCCOc3cc(=O)oc4ccccc34)nn2)c(OC)c1	0
COc1cc(/C=C/C(=O)/C=C/c2ccco2)ccc1OCc1cn(CCCCCOc2cc(=O)oc3ccccc23)nn1	0
COc1cc(/C=C/C(=O)/C=C/c2ccccc2)ccc1OCc1cn(CCOc2cc(=O)oc3ccccc23)nn1	1
COc1cc(/C=C/C(=O)/C=C/c2cccc3ccccc23)ccc1OCc1cn(CCCCCOc2cc(=O)oc3ccccc23)nn1	0

Please look at the following compound next.
API: above_or_equal(metric=inhibition of growth at 50 µM, cutoff=50%) for item COc1cc(/C=C/C(=O)/C=C/c2ccco2)ccc1OCc1cn(CCOc2cc(=O)oc3ccccc23)nn1 1

====

Measured inhibition of growth at 50 µM by item
Test: Cytotoxicity against human COLO205 cells assessed as growth inhibition at 50 uM after 48 hrs by SRB assay
Assay type: functional
Conditions: COLO 205, 48 h, read-out: GI
Field: numeric (%). Do not append units.

Examples with answers:
COc1cc(/C=C/C(=O)/C=C/c2cccs2)ccc1OCc1cn(CCCCCOc2cc(=O)oc3ccccc23)nn1	30
COc1cc(/C=C/C(=O)/C=C/c2ccco2)ccc1OCc1cn(CCCCOc2cc(=O)oc3ccccc23)nn1	43
COc1cc(/C=C/C(=O)/C=C/c2cccs2)ccc1OCc1cn(CCCOc2cc(=O)oc3ccccc23)nn1	55
COc1ccccc1/C=C/C(=O)/C=C/c1ccc(OCc2cn(CCCOc3cc(=O)oc4ccccc34)nn2)c(OC)c1	57

Please examine the following record next.
Fill in reported inhibition of growth at 50 µM for this entry: COc1cccc(/C=C/C(=O)/C=C/c2ccc(OCc3cn(CCCCOc4cc(=O)oc5ccccc45)nn3)c(OC)c2)c1 46
